test: PK-11195 induced cell death, propidium iodide staining, S11 cells; format: cell-based; details: human, read-out: percent of non-viable cells
observable: cytotoxicity at 24 h, 100 µM

Data request: State, in one line, measured cytotoxicity at 24 h, 100 µM of CCC(C)N(C)C(=O)c1cc2ccccc2c(-c2ccccc2Cl)n1 (stereo not shown)
Data returned: < 20%

###

test: PK-11195 induced cell death, propidium iodide staining, vector control cells; assay type: cell-based; settings: human, vector control cells (low Bcl-2 expression), 20 μM, read-out: percent of non-viable cells
observable: cytotoxicity at 24 h, 20 µM

Data request: State, in one line, measured cytotoxicity at 24 h, 20 µM of CCC(C)N(C)C(=O)c1cc2ccccc2c(-c2ccccc2Cl)n1 (stereo not shown)
Data returned: ~10%

###

experiment: PK-11195 induced cell death, propidium iodide staining, vector control cells; assay type: cell-based; conditions: human, vector control cells (low Bcl-2 expression), 100 μM, read-out: percent of non-viable cells
observable: cytotoxicity at 24 h, 100 µM

Data request: State, in one line, measured cytotoxicity at 24 h, 100 µM of CCC(C)N(C)C(=O)c1cc2ccccc2c(-c2ccccc2Cl)n1 (stereo not shown) [PK-11195]
Data returned: ~40%

###

molecular target: PBzR (Homo sapiens, UniProt P30536)
Sequence (P30536 whole entry): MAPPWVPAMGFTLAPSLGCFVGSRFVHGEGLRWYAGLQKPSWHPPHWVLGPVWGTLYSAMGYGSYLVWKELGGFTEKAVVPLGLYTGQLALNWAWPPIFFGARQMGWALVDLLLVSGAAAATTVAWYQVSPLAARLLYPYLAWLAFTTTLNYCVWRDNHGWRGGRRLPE
observable: IC50 (nM)
One number for each entry, in nM.

Data request: State, in one line, measured IC50 of CN1C(=O)CN=C(c2ccc(Cl)cc2)c2cc(Cl)ccc21
Data returned: 36.8
